Origin of the recorded values: patent US6608027B1

target: HCV NS3 protease type 1b (Hepatitis C virus genotype 1b); assay: Recombinant HCV NS3 protease radiometric assay; format: biochemical
Sequence (P26663 1027-1208): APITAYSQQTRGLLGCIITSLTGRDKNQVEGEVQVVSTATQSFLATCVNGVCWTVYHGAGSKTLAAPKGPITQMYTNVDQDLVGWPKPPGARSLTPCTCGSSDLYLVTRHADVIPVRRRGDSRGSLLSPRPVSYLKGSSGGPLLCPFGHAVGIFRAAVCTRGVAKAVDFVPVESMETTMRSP
parameter: IC50

[Q] Entry under review: `COc1ccc2c(O[C@@H]3C[C@H]4C(=O)N[C@@]5(C(=O)O)C[C@@H]5/C=C\CCCCC[C@H](NC(=O)OC(C)(C)C)C(=O)N4C3)cc(-c3ccccc3)nc2c1` . Reported IC50?
[A] > 1000 nM

###

molecular target: His-NS3-NS4AFL (full-length NS3-NS4A protein complex) (Hepatitis C virus genotype 1b); construct: made in house; host or cells: Sf21 insect cells, recombinant baculovirus (Bac-to-Bac, pFastBac HTa); experiment: Full-length NS3-NS4A heterodimer protein fluorogenic assay; format: biochemical, HCV genotype 1b
pIC50: −log10 of the molar value.
parameter: pIC50

# annotated cases, reported pIC50 shown
>>> measurement("CC(C)(C)OC(=O)N[C@H]1CCCCC/C=C\\[C@@H]2C[C@@]2(C(=O)O)NC(=O)[C@@H]2C[C@@H](Oc3ccnc4ccccc34)CN2C1=O")
"> 7.00"
>>> measurement("COc1ccc2c(O[C@@H]3C[C@H]4C(=O)N[C@]5(C(=O)O)C[C@H]5/C=C\\CCCCCC(O)C(=O)N4C3)ccnc2c1 (single isomer, unassigned)")
"6.00 to 7.00"

[Q] Notebook: pull reported pIC50 for His-NS3-NS4AFL (full-length NS3-NS4A protein complex) (Hepatitis C virus genotype 1b), entry `COc1ccc2c(O[C@@H]3C[C@H]4C(=O)N[C@]5(C(=O)O)C[C@H]5/C=C\CCCCC[C@H](NC(=O)OC(C)(C)C)C(=O)N4C3)cc(-c3ccccc3)nc2c1`
[A] > 7.00

###

target: NS3 protease (Hepatitis C virus genotype 1b); construct: expressed in transfected cells; host or cells: Huh-7 human hepatoma cells, transient co-transfection (CMV promoter); test: NS3 protease cell-based assay (SEAP reporter, Huh-7 cells); design: species or system HCV; conditions: SEAP activity, 24-hour incubation, read-out: cell. act. (EC50 code)
Sequence (P26663 1658-1711): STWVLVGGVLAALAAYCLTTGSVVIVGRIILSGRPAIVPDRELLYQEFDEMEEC
Sequence (P26663 1027-1657): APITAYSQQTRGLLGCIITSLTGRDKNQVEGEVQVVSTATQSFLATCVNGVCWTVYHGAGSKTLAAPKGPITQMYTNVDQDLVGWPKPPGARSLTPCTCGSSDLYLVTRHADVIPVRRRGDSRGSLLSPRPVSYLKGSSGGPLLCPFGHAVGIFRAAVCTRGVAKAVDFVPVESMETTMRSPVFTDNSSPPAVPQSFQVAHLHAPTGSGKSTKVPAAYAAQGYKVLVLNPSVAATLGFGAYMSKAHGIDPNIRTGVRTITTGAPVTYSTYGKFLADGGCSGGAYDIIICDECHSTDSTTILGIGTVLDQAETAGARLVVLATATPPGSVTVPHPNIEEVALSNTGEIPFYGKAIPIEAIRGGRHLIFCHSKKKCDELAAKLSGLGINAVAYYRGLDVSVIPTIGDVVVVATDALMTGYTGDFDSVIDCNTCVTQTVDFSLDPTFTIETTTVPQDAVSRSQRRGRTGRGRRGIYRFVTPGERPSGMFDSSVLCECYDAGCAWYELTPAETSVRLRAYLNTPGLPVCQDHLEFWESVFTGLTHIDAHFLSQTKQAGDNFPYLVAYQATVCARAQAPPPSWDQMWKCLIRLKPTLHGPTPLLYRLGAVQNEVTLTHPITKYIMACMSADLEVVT
parameter: EC50

# annotated cases, reported EC50 shown
>>> measurement("COc1ccc2c(O[C@@H]3C[C@H]4C(=O)N[C@]5(C(=O)O)C[C@H]5/C=C\\CCCCC[C@H](NC(=O)OC(C)(C)C)C(=O)N4C3)cc(-c3csc(C(C)C)n3)nc2c1")
"≤ 1000 nM"
>>> measurement("COc1ccc2c(O[C@@H]3C[C@H]4C(=O)N[C@]5(C(=O)O)CC5CCCCCCC[C@H](NC(=O)OC5CCCC5)C(=O)N4C3)cc(-c3csc(N)n3)nc2c1 (some centres unmarked)")
"≤ 1000 nM"
>>> measurement("COc1ccc2c(O[C@@H]3C[C@H]4C(=O)N[C@]5(C(=O)O)CC5CCCCCCC[C@H](NC(=O)OC5CCCC5)C(=O)N4C3)cc(-c3nc(C(C)C)cs3)nc2c1 (some centres unmarked)")
"≤ 1000 nM"
>>> measurement("COc1ccc2c(O[C@@H]3C[C@H]4C(=O)N[C@]5(C(=O)O)C[C@H]5/C=C\\COCCC[C@H](NC(=O)OC(C)(C)C)C(=O)N4C3)cc(-c3ccccc3)nc2c1")
"> 1000 nM"

# ---- query molecule ----
[Q] Entry under review: `CCOc1cc(O[C@@H]2C[C@H]3C(=O)N[C@]4(C(=O)O)C[C@H]4/C=C\CCCCC[C@H](NC(=O)OC(C)(C)C)C(=O)N3C2)c2ccc(OC)cc2n1` . Reported EC50?
[A] ≤ 1000 nM

###

target: His-NS3-NS4AFL (full-length NS3-NS4A protein complex) (Hepatitis C virus genotype 1b, UniProt P26663); construct: made in house; host or cells: Sf21 insect cells, recombinant baculovirus (Bac-to-Bac, pFastBac HTa); assay: Full-length NS3-NS4A heterodimer protein fluorogenic assay; type: biochemical, HCV genotype 1b; details: fluorogenic assay of Example 48; no asterisk; read-out: enzyme activity (IC50 grade)
Sequence (P26663 1658-1711): as the sequence (P26663 1658-1711) above
Sequence (P26663 1027-1657): as the sequence (P26663 1027-1657) above
pIC50: −log10 of the molar value.
parameter: pIC50

# annotated cases, reported pIC50 shown
>>> measurement("COc1ccc2c(O[C@@H]3C[C@H]4C(=O)N[C@]5(C(=O)O)CC5CCCCCO[C@H](C)[C@H](NC(=O)OC(C)(C)C)C(=O)N4C3)cc(-c3ccccc3)nc2c1 (stereo partly shown)")
"6.00 to 7.00"
>>> measurement("COc1ccc2c(O[C@@H]3C[C@H]4C(=O)N[C@]5(C(=O)O)CC5CC/C=C/CO[C@H](C)[C@H](NC(=O)OC(C)(C)C)C(=O)N4C3)cc(-c3ccccc3)nc2c1 (stereo partly shown)")
"6.00 to 7.00"
>>> measurement("COc1ccc2c(O[C@@H]3C[C@H]4C(=O)N[C@]5(C(=O)O)C[C@H]5CC/C=C/CS[C@@H](C)[C@H](NC(=O)OC(C)(C)C)C(=O)N4C3)cc(-c3ccccc3)nc2c1")
"> 7.00"
>>> measurement("COc1ccc2c(O[C@@H]3C[C@H]4C(=O)N[C@]5(C(=O)O)C[C@H]5CC/C=C/CCC[C@H](NC(=O)OC(C)(C)C)C(=O)N4C3)cc(-c3ccccc3)nc2c1")
"> 7.00"
>>> measurement("COc1ccc2c(O[C@@H]3C[C@H]4C(=O)N[C@]5(C(=O)O)CC5CCCCN(C(C)=O)CC[C@H](NC(=O)OC(C)(C)C)C(=O)N4C3)cc(-c3ccccc3)nc2c1 (stereo partly shown)")
"> 7.00"
>>> measurement("COc1ccc2c(O[C@@H]3C[C@H]4C(=O)N[C@]5(C(=O)O)C[C@H]5/C=C\\CCCCCC[C@H](NC(=O)OC(C)(C)C)C(=O)N4C3)cc(-c3csc(NC(C)=O)n3)nc2c1")
"> 7.00"
>>> measurement("CC(C)(C)OC(=O)N[C@H]1CCCCCC=CCCC2CC2(C(=O)O)NC(=O)[C@@H]2C[C@@H](Oc3ccnc4ccccc34)CN2C1=O (single isomer, unassigned)")
"6.00 to 7.00"
>>> measurement("CC(=O)Nc1nc(-c2cc(O[C@@H]3C[C@H]4C(=O)N[C@]5(C(=O)O)C[C@H]5/C=C\\CCCCC[C@H](NC(=O)OC(C)(C)C)C(=O)N4C3)c3ccc(N(C)C)cc3n2)cs1")
"> 7.00"
>>> measurement("COc1ccc2c(O[C@@H]3C[C@H]4C(=O)N[C@]5(C(=O)O)C[C@H]5/C=C\\CCCCC[C@H](NC(=O)OC(C)(C)C)C(=O)N4C3)cc(-c3cnco3)nc2c1")
"> 7.00"

# ---- query compound ----
[Q] Entry under review: `CCOc1cc(O[C@@H]2C[C@H]3C(=O)N[C@]4(C(=O)O)C[C@H]4/C=C\CCCCC[C@H](NC(C)=O)C(=O)N3C2)c2ccc(OC)cc2n1` . Reported pIC50?
[A] > 7.00

###

target: His-NS3-NS4AFL (full-length NS3-NS4A protein complex) (Hepatitis C virus genotype 1b, UniProt P26663); construct: made in house; host or cells: Sf21 insect cells, recombinant baculovirus (Bac-to-Bac, pFastBac HTa); assay: Full-length NS3-NS4A heterodimer protein fluorogenic assay; type: biochemical, HCV genotype 1b
Listed next: entries and their corresponding IC50.

# annotated cases, reported IC50 shown
>>> measurement("COc1ccc2c(O[C@@H]3C[C@H]4C(=O)N[C@]5(C(=O)O)C[C@H]5/C=C\\CCCCC[C@H](N)C(=O)N4C3)cc(-c3ccccc3)nc2c1")
"< 100 nM"
>>> measurement("CC(=O)N[C@H]1CCC/C=C/CC[C@@H]2C[C@@]2(C(=O)O)NC(=O)[C@@H]2CC(Oc3ccnc4ccccc34)CN2C1=O (stereo partly shown)")
"> 1000 nM"
>>> measurement("COc1ccc2c(O[C@@H]3C[C@H]4C(=O)N[C@]5(C(=O)O)C[C@H]5CCCCCCC[C@H](NC(C)=O)C(=O)N4C3)cc(-c3ccccc3)nc2c1")
"< 100 nM"
>>> measurement("CC(C)(C)OC(=O)N[C@H]1CCC/C=C/CC[C@@H]2C[C@@]2(C(=O)O)NC(=O)[C@@H]2CC(Oc3ccnc4ccccc34)CN2C1=O (stereo partly shown)")
"100 to 1000 nM"
>>> measurement("COc1ccc2c(O[C@@H]3C[C@H]4C(=O)N[C@]5(C(=O)O)CC5/C=C\\CCCCC[C@H](NC(=O)NC(C)(C)C)C(=O)N4C3)cc(-c3ccccc3)nc2c1 (stereo partly shown)")
"< 100 nM"

[Q] Entry under review: `COc1ccc2c(O[C@@H]3C[C@H]4C(=O)N[C@]5(C(=O)O)C[C@H]5CCCCCCC[C@H](NC(=O)OC(C)(C)C)C(=O)N4C3)cc(-c3ccccc3)nc2c1` . Reported IC50?
[A] < 100 nM

[Q] Entry under review: CC(C)(C)OC(=O)N[C@H]1CCCC(O)C(O)CC[C@@H]2C[C@@]2(C(=O)O)NC(=O)[C@@H]2CC(Oc3ccnc4ccccc34)CN2C1=O (stereo partly shown) . Reported IC50?
[A] 100 to 1000 nM
